- System: xanthurenic acid receptor
- experimentSummary: Screening: displacement of [3H]-XA binding to synaptic membranes at a fixed concentration
- conditionSummary: compound at 50 μM; 200 nM [3H]-XA, synaptic membranes; xanthurenic acid set arbitrarily to 100%
- Method: If this concentration produces the same or greater displacement than the same concentration of non-radiolabelled XA, then an IC50 is determined. […] The incubation time is 25 min. […] The filters are placed in scintillation vials to which 5 ml of Rotiszint® (Roth) are added and the vials are counted in a Beckman LS6000sc liquid scintillation counter. […] The percentage inhibition of binding that the synthetic compounds produce is calculated for each compound in relation to its positive control.
endpointLabel: % inhibition of XA binding at 50 μM* (%)

compound	system	% inhibition of XA binding at 50 μM* / %
Cc1ccc(S(=O)(=O)Nc2cc(C(=O)O)nc3c(O)cccc23)cc1 [Compound 16a]	xanthurenic acid receptor	77
O=C(O)c1cc(O)c2cccc(O)c2n1 [Xanthurenic acid, reference compound]	xanthurenic acid receptor	100
O=C(O)c1cc(O)c2c(Cl)cc(Cl)c(O)c2n1	xanthurenic acid receptor	80
Nc1cccc2c(O)cc(C(=O)O)nc12	xanthurenic acid receptor	106

---

- system: xanthurenic acid receptor
- experimentSummary: Competition protocol, IC50 determination against [3H]-XA binding on synaptic membranes
- conditionSummary: competition between [3H]-XA and non-radiolabelled XA; read-out: IC50, first site of two site binding model
endpointLabel: pIC50
Please note pIC50 is a logarithmic value: minus log10 of concentration in mol/L. Answer with that number alone.

Problem: Endpoint output: pIC50 of O=C(O)c1cc(O)c2cccc(O)c2n1 [Xanthurenic acid, reference compound] . Value?
Result: 6.52

---

- System: xanthurenic acid receptor
- experimentSummary: Screening: displacement of [3H]-XA binding to synaptic membranes at a fixed concentration
- conditionSummary: compound at 10 μM; 200 nM [3H]-XA, synaptic membranes; xanthurenic acid set arbitrarily to 100%
endpointLabel: % inhibition of XA binding at 10 μM* (%)

// solved cases for % inhibition of XA binding at 10 μM* follow
molecule	result
CN1CCN(c2cc(C(=O)O)nc3c(O)cccc23)CC1.Cl [Compound 110c]	166
O=C(O)c1cc(O)c2ccc(CCc3ccccc3)c(O)c2n1 [Compound 55b]	103
O=C(O)c1nc2c(O)cccc2c(O)c1Br [Compound 52c]	143

(A) Cl.O=C(O)c1cc(O)c2cc(C3CCCCN3)cc(O)c2n1 (centres unmarked) [Compound 61b]
(B) Cl.O=C(O)c1cc(O)c2cccc(N3CCN(Cc4ccccc4)CC3)c2n1 [Compound 105b]
Problem: Hi, I'm comparing A with B and wondering which one has the bigger number for % inhibition of XA binding at 10 μM*. Any idea? Your choice should be expressed through its label.
Result: A

---

- Test system: xanthurenic acid receptor
- experimentSummary: Screening: displacement of [3H]-XA binding to synaptic membranes at a fixed concentration
- conditionSummary: compound at 10 μM; 200 nM [3H]-XA, synaptic membranes; xanthurenic acid set arbitrarily to 100%
endpointLabel: % inhibition of XA binding at 10 μM* (%)

// solved cases for % inhibition of XA binding at 10 μM* follow
compound	system	% inhibition of XA binding at 10 μM* (%)
Cl.O=C(O)c1cc(O)c2cccc(N3CCCCC3)c2n1 [Compound 102b]	xanthurenic acid receptor	92
CN1CCN(c2cc(N)c3nc(C(=O)O)cc(O)c3c2)CC1.Cl [Compound 124b]	xanthurenic acid receptor	109
NC(=O)c1cccc2c(O)cc(C(=O)O)nc12 [Compound 37c]	xanthurenic acid receptor	77
N#CCCCCCc1cc(N)c2nc(C(=O)O)cc(O)c2c1 [Compound 123c]	xanthurenic acid receptor	100
O=C(O)c1cc(O)c2cccc(OCc3ccccc3)c2n1	xanthurenic acid receptor	120

(a) Cl.O=C(O)c1cc(O)c2cccc(N3CCNCC3)c2n1 [Compound 108b]
(b) O=C(O)c1cc(-c2ccccc2)c2cccc(O)c2n1 [Compound 10b]
(c) COc1cccc2ccc(C(=O)O)nc12
Problem: Please list these compounds in decreasing order of % inhibition of XA binding at 10 μM*. Answer by listing the labels in the requested order.
Result: b, a, c

---

- system: xanthurenic acid receptor
- experimentSummary: Competition protocol, IC50 determination against [3H]-XA binding on synaptic membranes
- conditionSummary: two site binding model, first (lower) IC50; 200 nM [3H]-XA, synaptic membranes; read-out: IC50 (μM), first of two values
- Procedure: Binding is carried out in 50 mM Pipes buffer pH 7.4 at 0° C. […] If the compound reversibly binds to the binding site of [^3H]-XA, the two ligands will compete with each other and a binding displacement curve for [^3H]-XA can be plotted against the concentration of the competitor molecule. The incubation time is 25 minutes, followed by filtration.
endpointLabel: IC50 (µM)
Respond numerically; units are µM and should not be typed.

Problem: What is its IC50 for xanthurenic acid receptor? Entry: `O=C(O)c1ccc2cccc(O)c2n1`
Result: 0.09

---

- System: xanthurenic acid receptor
- experimentSummary: Screening: displacement of [3H]-XA binding to synaptic membranes at a fixed concentration
- conditionSummary: compound at 10 μM; 200 nM [3H]-XA, synaptic membranes; xanthurenic acid set arbitrarily to 100%
endpointLabel: % inhibition of XA binding at 10 μM* (%)

// solved cases for % inhibition of XA binding at 10 μM* follow
compound	system	% inhibition of XA binding at 10 μM* (%)
Cl.Nc1cc(CCc2cccnc2)cc2c(O)cc(C(=O)O)nc12 [Compound 122c]	xanthurenic acid receptor	29
Nc1ccc(CCCO)c2c(O)cc(C(=O)O)nc12 [Compound 75c]	xanthurenic acid receptor	31
CC(C)(C)C(=O)Nc1cccc2c(O)cc(C(=O)O)nc12 [Compound 28b]	xanthurenic acid receptor	0

(A) CCCCCCCc1cc(O)c2nc(C(=O)O)cc(O)c2c1 [Compound 22b]
(B) O=C(O)c1cc(O)c2c(Cl)cc(Cl)c(O)c2n1 [Compound 3i]
Problem: Of the pair A and B , name the member with the lesser recorded % inhibition of XA binding at 10 μM*. Your choice should be expressed through its label.
Result: A

(a) Cl.O=C(O)c1cc(N2CCOCC2)c2cccc(O)c2n1 [Compound 99c]
(b) O=C(O)c1cc(O)c2cccc(F)c2n1 [Compound 36c]
(c) CC(=O)Nc1cccc2c(O)cc(C(=O)O)nc12 [Compound 28a]
Problem: Ascending sort, % inhibition of XA binding at 10 μM*. Answer by listing the labels in the requested order.
Result: c, b, a

---

- Test system: xanthurenic acid receptor
- experimentSummary: Screening: displacement of [3H]-XA binding to synaptic membranes at a fixed concentration
- conditionSummary: compound at 10 μM; 200 nM [3H]-XA, synaptic membranes; xanthurenic acid set arbitrarily to 100%
endpointLabel: % inhibition of XA binding at 10 μM* (%)

// solved cases for % inhibition of XA binding at 10 μM* follow
molecule	system	measurementUnit	% inhibition of XA binding at 10 μM*
N#Cc1cccc2c(O)c(Br)c(C(=O)O)nc12 [Compound 66b]	xanthurenic acid receptor	%	69
COc1ccc(-c2cc(O)c3nc(C(=O)O)cc(O)c3c2)cc1 [Compound 19g]	xanthurenic acid receptor	%	54.5
N#Cc1cc(-c2ccccc2)cc2c(O)cc(C(=O)O)nc12 [Compound 64b]	xanthurenic acid receptor	%	14
Cc1ccc(O)c2nc(C(=O)O)cc(O)c12	xanthurenic acid receptor	%	48
COC(=O)c1cc(O)c2cc(Nc3ccccc3)cc(N)c2n1 [Compound 33c]	xanthurenic acid receptor	%	97
CCc1cc(C#N)c2nc(C(=O)O)cc(O)c2c1 [Compound 69d]	xanthurenic acid receptor	%	26

(1) O=C(O)CC1Nc2c(O)cccc2NC1=O (centres unmarked) [Compound 60c]
(2) N#Cc1cc(Br)cc2c(O)cc(C(=O)O)nc12 [Compound 63c]
Problem: Of the pair 1 and 2 , name the member with the lesser recorded % inhibition of XA binding at 10 μM*. Your choice should be expressed through its label.
Result: 2

---

- Tested on: xanthurenic acid receptor
- experimentSummary: Screening: displacement of [3H]-XA binding to synaptic membranes at a fixed concentration
- conditionSummary: compound at 10 μM; 200 nM [3H]-XA, synaptic membranes; xanthurenic acid set arbitrarily to 100%
endpointLabel: % inhibition of XA binding at 10 μM* (%)

compound	system	measurementUnit	% inhibition of XA binding at 10 μM*
O=C(O)c1cc(O)c2cc(-c3ccccc3)cc(O)c2n1 [Compound 19f]	xanthurenic acid receptor	%	163.1
O=C(O)c1ccc2c(-c3ccccc3)ccc(O)c2n1 [Compound 19t]	xanthurenic acid receptor	%	50
Cc1cc(N)c2nc(C(=O)O)cc(O)c2c1	xanthurenic acid receptor	%	0

(A) Nc1cc(C(=O)O)nc2c(N)cccc12
(B) Cl.NCCCc1cc(C(=O)O)nc2c(N)cccc12 [Compound 95c]
Problem: Hi, I'm comparing A with B and wondering which one has the bigger number for % inhibition of XA binding at 10 μM*. Any idea? Your choice should be expressed through its label.
Result: B
(B: 57%, A: 7.7%)

From: patent US20060183909A1
